- Study Target: type 1 human 5α-reductase (HRED1) (Homo sapiens)
- Sequence (P18405 whole entry): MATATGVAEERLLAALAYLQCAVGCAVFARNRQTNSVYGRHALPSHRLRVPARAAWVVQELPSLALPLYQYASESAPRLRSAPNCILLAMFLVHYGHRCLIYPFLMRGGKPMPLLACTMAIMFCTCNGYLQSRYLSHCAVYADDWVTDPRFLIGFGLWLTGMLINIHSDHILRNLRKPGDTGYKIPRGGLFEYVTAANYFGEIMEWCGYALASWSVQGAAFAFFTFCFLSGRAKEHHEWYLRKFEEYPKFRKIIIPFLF
- Assay Explanation: Cell free assay of 5α-reductase, microsomes of rat 1A cells expressing type 1 isoenzyme (HRED1);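 further: microsomes from rat 1A cells expressing human type 1 5α-reductase, conversion of radiolabeled testosterone to dihydrotestosterone quantified by thin layer chromatography with radioanalytic scanning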
- Type: biochemical
- Set-up: expressed in transfected cells; host or cells: rat 1A cells infected with pMV7 retrovirus; microsomes
- Measurement Parameters: cell free assay; Table 6 fatty acids; read-out: HRED1 IC50
Measurement Kind: pIC50
// pIC50 here means minus log10 of the molar concentration (mol/L)

Field: example entries. Status: answers known.
>  <Compound>
CCCCCCCCCCCCCCCCCC(=O)O

>  <pIC50>
4.57

$$$$
>  <Compound>
CCCCC/C=C\C/C=C\C/C=C\CCCCC(=O)O [Gamma-Linolenic Acid, Gamma-Linolenic Acid C18:3 CIS 6.9,12]

>  <pIC50>
5.30

$$$$
>  <Compound>
CCCCC/C=C\C/C=C\CCCCCCCC(=O)O [Linoleic Acid, Linoleic Acid C18:2 CIS 9,12]

>  <pIC50>
5.05

$$$$

# input for lookup
Query: Provide one value: measured pIC50 of `CC(/C=C/C=C(\C)C(=O)O)=C\C=C\C=C(C)\C=C\C=C(/C)C(=O)O`
Response: 5.15
